assay: Cmax in Sprague-Dawley rat at 10 mg/kg, po measured upto 24 hrs by LC-MS/MS analysis; format: ADME, organism-based; design: route oral, dose 10 mg/kg, time <=24; conditions: in vivo
outcome-measure: Cmax

compound "Fc1cc(F)c(F)c(-c2ccc(N[C@H]3C[C@@H]4CN(CC5CCOCC5)C[C@@H]4C3)nn2)c1" , Cmax observed: 17000 ng/mL

====

assay: Volume of distribution at steady state in CD-1 mouse at 1.0 mg/kg, iv measured upto 24 hrs by LC-MS/MS analysis; type: ADME, organism-based; conditions: in vivo, read-out: Vdss
outcome-measure: Vd
Write the figure, then the unit, nothing else.

Vd in this record for "Fc1cc(F)c(F)c(-c2ccc(N[C@H]3C[C@@H]4CN(CC5CCOCC5)C[C@@H]4C3)nn2)c1" : 10.6 L/kg
